Target: T1, EsCas13d, nuclease-dead (Eubacterium siraeum, UniProt B0MS50, R295A;H300A;R849A;H854A)
T1 sequence: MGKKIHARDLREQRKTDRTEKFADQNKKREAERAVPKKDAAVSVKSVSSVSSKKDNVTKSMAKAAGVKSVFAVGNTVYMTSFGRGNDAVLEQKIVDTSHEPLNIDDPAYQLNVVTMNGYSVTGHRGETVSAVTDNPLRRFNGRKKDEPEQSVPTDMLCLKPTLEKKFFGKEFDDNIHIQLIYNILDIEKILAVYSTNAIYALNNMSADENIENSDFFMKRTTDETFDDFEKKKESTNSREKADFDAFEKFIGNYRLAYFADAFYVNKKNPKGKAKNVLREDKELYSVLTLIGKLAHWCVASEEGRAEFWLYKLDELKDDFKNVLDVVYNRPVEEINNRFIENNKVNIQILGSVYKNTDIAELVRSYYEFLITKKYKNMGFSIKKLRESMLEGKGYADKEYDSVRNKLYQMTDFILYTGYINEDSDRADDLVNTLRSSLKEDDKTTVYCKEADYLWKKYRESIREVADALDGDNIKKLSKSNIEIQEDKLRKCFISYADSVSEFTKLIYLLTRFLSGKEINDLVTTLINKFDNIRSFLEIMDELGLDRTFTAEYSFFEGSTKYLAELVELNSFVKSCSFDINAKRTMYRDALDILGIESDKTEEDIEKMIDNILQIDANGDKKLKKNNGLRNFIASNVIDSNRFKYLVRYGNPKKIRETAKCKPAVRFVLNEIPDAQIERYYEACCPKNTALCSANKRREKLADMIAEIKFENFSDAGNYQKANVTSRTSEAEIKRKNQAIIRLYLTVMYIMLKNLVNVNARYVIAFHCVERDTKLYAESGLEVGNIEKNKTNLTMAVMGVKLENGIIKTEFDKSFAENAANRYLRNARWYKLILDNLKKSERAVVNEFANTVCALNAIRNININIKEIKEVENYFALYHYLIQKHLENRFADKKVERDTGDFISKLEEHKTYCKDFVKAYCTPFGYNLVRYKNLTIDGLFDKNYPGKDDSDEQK
Test: crRNA (strand 1, pre-loaded); Mg2+; 40 mM Tris-HCl pH 7.5, 150 mM NaCl, 6 mM MgCl2, 1 mM DTT, 0.1% Tween-20, 0.2 mg/ml BSA; 25 C; 10 min per concentration, then washed
Conditions: tags: His6-TwinStrep-SUMO cleaved; N-terminal SNAP kept (SNAP-Surface 488); label: 3' end held by stalled T7 RNA polymerase
Reported values of Kd for individual entries
Attribute Measured: Kd

{"Binder": "target 3 C6U,U8A (mixed) RNA 1: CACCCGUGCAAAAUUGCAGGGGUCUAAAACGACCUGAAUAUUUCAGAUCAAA RNA 2: GGGAAUGGAUCCACAUCUACGAAUUCGUUUUUGAUCUGAAAUAAUUAGGUCUGCAGAUCGGAAGAGCACACGU", "Value Observed": "50.8 nM"}
{"Binder": "target 1 insC 3' of 10,insG 3' of 1 (mixed) RNA 1: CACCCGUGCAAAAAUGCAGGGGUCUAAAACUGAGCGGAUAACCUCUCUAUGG RNA 2: GGGAAUGGAUCCACAUCUACGAAUUCGUACCAUAGAGAGGUUCAUCCGCUCAGCCGAGAUCGGAAGAGCACACGU", "Value Observed": "15.5 nM"}
{"Binder": "target 2 MT 5'PFS CAU 3'PFS CAC (mixed) RNA 1: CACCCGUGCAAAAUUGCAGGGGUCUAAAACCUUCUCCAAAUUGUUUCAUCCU RNA 2: GGGAAUGGAUCCACAUCUACGAAUUCCAUAGGAUGAAACAAUUUGGAGAAGCACAGAUCGGAAGAGCACACGU", "Value Observed": "4.6 nM"}
{"Binder": "target 1 insU 3' of 15,insA 3' of 10 (mixed) RNA 1: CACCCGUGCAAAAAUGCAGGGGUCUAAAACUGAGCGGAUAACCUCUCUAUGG RNA 2: GGGAAUGGAUCCACAUCUACGAAUUCGUACCAUAGAGUAGGUUAAUCCGCUCACCGAGAUCGGAAGAGCACACGU", "Value Observed": "20.2 nM"}
